Documented microsomal CLint across a set of molecules
assay_notes: Intrinsic clearance in liver microsomes
Format: ADME, Microsome
stated_conditions: read-out: CLH
Report the figure in µL/min/mg without appending any unit label.

Below: 2 molecules and their reported microsomal CLint.
CC#C[C@]1(O)CC[C@H]2[C@@H]3CCC4=CC(=O)CCC4=C3[C@@H](c3ccc(N(C)C=O)cc3)C[C@@]21C ... 81
CC#C[C@]1(O)CC[C@H]2[C@@H]3CCC4=CC(=O)CCC4=C3[C@@H](c3ccc(N(C)C)cc3)C[C@@]21C [MIFEPRISTONE] ... 92.5

Consider the additional molecule presented here.
Ask: Suppose we examine the molecule CC#C[C@]1(O)CC[C@H]2[C@@H]3CCC4=CC(=O)CCC4=C3[C@@](Cl)(c3cc(Cl)c(N(C)C)c(Cl)c3)C[C@@]21C ; what microsomal CLint value has been reported?
Reply: 76

====

target_of_assay: Progesterone receptor (Homo sapiens, UniProt P06401)
Sequence (P06401 whole entry): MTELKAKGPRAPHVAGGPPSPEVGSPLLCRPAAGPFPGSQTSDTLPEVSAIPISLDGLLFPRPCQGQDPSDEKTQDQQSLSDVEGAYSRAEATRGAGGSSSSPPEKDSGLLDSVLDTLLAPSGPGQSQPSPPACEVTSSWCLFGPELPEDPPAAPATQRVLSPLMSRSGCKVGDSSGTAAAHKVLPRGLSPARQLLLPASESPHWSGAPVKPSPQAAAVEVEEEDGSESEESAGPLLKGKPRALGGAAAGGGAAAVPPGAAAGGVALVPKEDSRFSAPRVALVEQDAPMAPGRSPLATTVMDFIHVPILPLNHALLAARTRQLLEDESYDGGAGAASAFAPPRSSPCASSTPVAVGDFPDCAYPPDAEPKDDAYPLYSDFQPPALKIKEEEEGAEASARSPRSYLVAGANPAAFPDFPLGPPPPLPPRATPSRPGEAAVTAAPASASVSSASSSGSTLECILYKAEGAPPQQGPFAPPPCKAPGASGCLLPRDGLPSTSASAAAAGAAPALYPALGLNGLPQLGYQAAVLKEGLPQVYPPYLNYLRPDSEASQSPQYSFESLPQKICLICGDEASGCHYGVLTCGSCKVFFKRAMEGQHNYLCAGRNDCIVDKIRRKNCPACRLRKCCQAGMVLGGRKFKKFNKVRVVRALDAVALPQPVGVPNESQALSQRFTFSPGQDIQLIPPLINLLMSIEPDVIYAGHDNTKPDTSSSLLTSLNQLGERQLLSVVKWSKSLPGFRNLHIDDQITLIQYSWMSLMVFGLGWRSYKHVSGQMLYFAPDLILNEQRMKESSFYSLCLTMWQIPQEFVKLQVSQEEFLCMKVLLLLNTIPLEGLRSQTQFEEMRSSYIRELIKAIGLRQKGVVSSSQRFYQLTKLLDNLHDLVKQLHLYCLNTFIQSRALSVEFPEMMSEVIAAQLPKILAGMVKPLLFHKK
assay_notes: Antagonist activity at progesterone receptor
Quick reference for pIC50 among some molecules
Notebook: values listed as pIC50 are -log10 of the concentration (mol/L).

Worked examples, 3 molecules total:
CC#C[C@]1(O)CC[C@H]2[C@@H]3CCC4=CC(=O)CCC4=C3C(c3ccc(N(C)C)cc3)=C[C@@]21C ... 6.51
CC#C[C@]1(O)CC[C@H]2[C@@H]3CCC4=CC(=O)CCC4=C3[C@@](Cl)(c3cc(Cl)c(N(C)C)c(Cl)c3)C[C@@]21C ... 6.11
CC#C[C@]1(O)CC[C@H]2[C@@H]3CCC(=O)C(CCC(=O)O)=C3[C@@H](c3ccc(N(C)C=O)cc3)C[C@@]21C ... 6.37

Ask: pIC50 for CC#C[C@]1(O)CC[C@H]2[C@@H]3CCC4=CC(=O)CCC4=C3[C@@H](c3ccc(N(C)C=O)cc3)C[C@@]21C ?
Reply: 8.00

====

target_of_assay: UniProt P34998
Sequence (P34998 whole entry): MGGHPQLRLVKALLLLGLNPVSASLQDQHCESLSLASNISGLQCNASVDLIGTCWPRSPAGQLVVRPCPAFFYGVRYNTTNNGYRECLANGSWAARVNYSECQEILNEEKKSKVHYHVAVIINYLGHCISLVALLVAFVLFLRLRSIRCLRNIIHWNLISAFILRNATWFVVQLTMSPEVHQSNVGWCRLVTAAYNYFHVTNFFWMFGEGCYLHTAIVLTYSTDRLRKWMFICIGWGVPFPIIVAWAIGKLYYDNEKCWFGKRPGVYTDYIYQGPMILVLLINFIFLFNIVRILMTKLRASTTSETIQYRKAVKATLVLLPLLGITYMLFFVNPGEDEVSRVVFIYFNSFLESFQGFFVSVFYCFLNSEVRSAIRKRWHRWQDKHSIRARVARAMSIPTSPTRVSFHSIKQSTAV
assay_notes: Antagonist activity at human recombinant CRF1 receptor expressed in CHO cells by cAMP assay
observed_property: Ki (nM)
Kindly answer with a numeric value in nM, unit omitted.

In the examples that follow, each entry is paired with its recorded Ki.
CCCCN(CC)c1nc(C)nc2c1c(C)c(C=O)n2-c1c(C)cc(C)cc1C ... 52
CCCCN(CC)c1nc(C)nc2c1c(C)c(CO)n2-c1c(C)cc(C)cc1C ... 6
CCCCN(CC)c1nc(C)nc2c1c(C)c(C)n2-c1c(C)cc(C)cc1C ... 32

# context switch: different compound, same Ki
Ask: Look at this compound and give its reported Ki. CCCCN(CC)c1nc(C)nc2c1c(C)c(COC)n2-c1c(C)cc(C)cc1C
Reply: 11
